The measured values listed here are drawn from the supplement of paper PMC10065799.

- experimental.system: Grb2 SH2 (UniProt P62993)
- Sequence (P62993 whole entry, looked up, the tested form may be a part): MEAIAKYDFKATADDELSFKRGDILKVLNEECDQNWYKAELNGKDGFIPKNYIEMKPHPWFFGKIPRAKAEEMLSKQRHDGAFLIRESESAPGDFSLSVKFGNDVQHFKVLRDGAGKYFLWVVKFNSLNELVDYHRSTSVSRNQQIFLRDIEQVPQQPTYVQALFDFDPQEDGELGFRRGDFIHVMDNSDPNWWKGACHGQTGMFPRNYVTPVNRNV
- test.method.notes: SH2 binding enrichment of the phosphorylated peptide, bacterial display (enrichment ratio); higher = better substrate or ligand; peptides without Tyr show the background;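 note: peptide library displayed on the E. coli surface as eCPX fusions, selected cells deep-sequenced, score is each peptide's frequency after selection divided by its frequency in the input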
Quick rule for you: SH2 binding enrichment at 0.9 or higher means rule met, lower means rule not met.

{"biosequence": "FRVDCYKNFVA [FHL1_Y213_C209R_YF]", "class.assignment": "rule met"}
{"biosequence": "MHLRQYKLLGG [GNAS_Y391_E392K]", "class.assignment": "rule not met"}
{"biosequence": "VKPRRYRPGTV [H3-5_Y41_H39R]", "class.assignment": "rule not met"}
{"biosequence": "WANPEYTGGFK", "class.assignment": "rule not met"}
{"biosequence": "PKGIRYGQGAG [CSRP3_Y73_G72R]", "class.assignment": "rule met"}
{"biosequence": "KRLKDYLTVLQ [USP25_Y425]", "class.assignment": "rule met"}
{"biosequence": "PVQAAYQKVVA [HBB_Y131]", "class.assignment": "rule not met"}
{"biosequence": "VEKEKYVSYIS [JMJD1C_Y596_M591V]", "class.assignment": "rule met"}
{"biosequence": "GEEIKYMLWLL [OTC_Y55_S60L]", "class.assignment": "rule met"}
{"biosequence": "SGDINYGQFAQ [PLCG1_Y210_T209N]", "class.assignment": "rule met"}
{"biosequence": "GVTLLYFGRFN [ADGRD1_Y85_YF]", "class.assignment": "rule met"}
{"biosequence": "ATVRPYRPFII [LRP5_Y1528_A1525V_YF]", "class.assignment": "rule met"}
{"biosequence": "RPGSGYTKIMR [PKLR_Y564_N566K]", "class.assignment": "rule met"}
{"biosequence": "AIKSFYAALID [RYR1_Y2426_M2423K]", "class.assignment": "rule met"}
{"biosequence": "TNFRLYLRSLE [MTM1_Y71_YF]", "class.assignment": "rule not met"}
{"biosequence": "FMMMRYSQNIR [SDAD1_Y656_V660I]", "class.assignment": "rule met"}
{"biosequence": "HVKHNYECLVF [XRCC5_Y416_I412V_YF]", "class.assignment": "rule met"}
{"biosequence": "PKEEPYKMQEK [SLC5A3_Y565_Q566K]", "class.assignment": "rule not met"}
{"biosequence": "RLLVVYTWTQR [HBB_Y36_P37T]", "class.assignment": "rule met"}
{"biosequence": "PAVGIYNGNIN [CDCP1_Y707_D709G]", "class.assignment": "rule not met"}
{"biosequence": "MDDPRYGVCPL [ZNF100_Y6_M8V]", "class.assignment": "rule not met"}
{"biosequence": "VQEDIYDEFVV [ALDH2_Y332_E337V]", "class.assignment": "rule not met"}
{"biosequence": "VDASFYGGRGV [ANTXR2_Y381_YF]", "class.assignment": "rule not met"}
{"biosequence": "ANRNVYEVEPT [MEGF10_Y1075]", "class.assignment": "rule not met"}
{"biosequence": "PEEKVYLSRGD [CRACR2A_Y141_H136P]", "class.assignment": "rule not met"}
{"biosequence": "ADEDIYGVLPA [LYNtide_2014]", "class.assignment": "rule met"}

----------
- experimental.system: SHP2-C SH2
- test.method.notes: SH2 binding enrichment of the phosphorylated peptide, bacterial display (enrichment ratio); higher = better substrate or ligand; peptides without Tyr show the background
value.kind: SH2 binding enrichment

{"biosequence": "AVDDKYSRREE [SART1_Y685_I681V]", "value.kind": "SH2 binding enrichment", "reading": 0.925}
{"biosequence": "ISDNACQYMLT [MYH7_Y162_Y162C]", "value.kind": "SH2 binding enrichment", "reading": 0.748}
{"biosequence": "RVGVDYEGGGC [PLOD1_Y675]", "value.kind": "SH2 binding enrichment", "reading": 0.884}
{"biosequence": "GGDGSYVSVPL [TNNI3K_Y425_S430L]", "value.kind": "SH2 binding enrichment", "reading": 0.682}
{"biosequence": "ADRARYSAFGG [RBM4_Y361]", "value.kind": "SH2 binding enrichment", "reading": 0.58}
{"biosequence": "NKHTTYTMEHI [ACTN1_Y708_N707T]", "value.kind": "SH2 binding enrichment", "reading": 0.787}
{"biosequence": "IVRSPYEDLED [VHL_Y185_L184P]", "value.kind": "SH2 binding enrichment", "reading": 0.766}
{"biosequence": "ARVDTYCRHNY [HLA-DRB1_Y107_A103R]", "value.kind": "SH2 binding enrichment", "reading": 0.755}
{"biosequence": "EFRFIYMAVQH [PTPN11_Y515_Q510E_YF]", "value.kind": "SH2 binding enrichment", "reading": 0.86}
{"biosequence": "FGVTLYPNSGE [MEP1A_Y472_R476G]", "value.kind": "SH2 binding enrichment", "reading": 0.851}
{"biosequence": "SIKDKYVTVLF [KCNH2_Y611_A614V_YF]", "value.kind": "SH2 binding enrichment", "reading": 10.8}
{"biosequence": "EKKDLYKAGEQ [CFH_Y1008_V1007L]", "value.kind": "SH2 binding enrichment", "reading": 0.655}
{"biosequence": "LEFAKYGSLRG [RET_Y809_V804L_YF]", "value.kind": "SH2 binding enrichment", "reading": 0.73}
